Listing of entries alongside the reported pIC50.
target.desc: CK1δ (Homo sapiens (Human), UniProt P48730)
Sequence (P48730 whole entry): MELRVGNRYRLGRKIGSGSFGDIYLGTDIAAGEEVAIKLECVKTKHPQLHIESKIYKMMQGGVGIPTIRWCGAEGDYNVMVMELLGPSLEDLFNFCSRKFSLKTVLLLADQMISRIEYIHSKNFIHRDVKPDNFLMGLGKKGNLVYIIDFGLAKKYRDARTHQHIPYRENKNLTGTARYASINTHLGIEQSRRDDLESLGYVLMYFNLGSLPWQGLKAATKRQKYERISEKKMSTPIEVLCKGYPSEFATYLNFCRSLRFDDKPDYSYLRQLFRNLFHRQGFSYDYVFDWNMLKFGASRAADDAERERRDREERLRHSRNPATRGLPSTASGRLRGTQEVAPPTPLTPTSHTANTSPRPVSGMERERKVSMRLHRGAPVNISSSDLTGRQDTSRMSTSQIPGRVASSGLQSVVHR
experimental.details: CK1δ kinase assay (Caliper LABCHIP electrophoretic separation of fluoresceinated peptide substrate and product)
Type: biochemical
condition.parameters: 200 pM CK1δ, 50 μM ATP, 1.5 μM peptide substrate, 22 hours at room temperature; read-out: CK1δ (IC50)
pIC50: −log10 of the molar value.

So what's the measured pIC50 for this one? N#Cc1ccc(NC(=O)N2Cc3c(C(N)=O)c(-c4ccc(F)c(Cl)c4)nn3C(C(F)F)C2)cc1Cl (stereo not shown)
8.00 to 11.00

Please look up its pIC50: NC(=O)c1c(-c2ccc(F)cc2)nn2c1CN(C(=O)NC1CCCCC1)CC2
8.00 to 11.00

State the recorded pIC50 for this entry: NC(=O)c1c(-c2cccc(Cl)c2)nn2c1CN(C(=O)Nc1ccc(N3CCCCC3)cc1)C[C@@H]2CF
8.00 to 11.00

Need pIC50 of CC(C)(NC(=O)N1CCn2nc(-c3cccc(F)c3)c(C(N)=O)c2C1)c1ccc(F)cc1 , thanks.
8.00 to 11.00

Can you look up the measured pIC50 of CSc1cccc(-c2nn3c(c2C(N)=O)CN(C(=O)Nc2ccc(C#N)cc2)CC3)c1 for me?
8.00 to 11.00

Name the recorded pIC50 for COc1cc(F)cc(-c2nn3c(c2C(N)=O)CN(C(=O)Nc2ccc(C#N)cc2)CC3)c1 .
8.00 to 11.00

Which measured pIC50 value corresponds to CSc1cccc(-c2nn3c(c2C(N)=O)CN(C(=O)NC(C)(C)C)CC3)c1 ?
8.00 to 11.00

Which measured pIC50 value corresponds to N#Cc1ccc(NC(=O)N2Cc3c(C(N)=O)c(-c4cccc(Cl)c4)nn3C3(CC3)C2)cc1 ?
8.00 to 11.00

Return reported pIC50; argument: CC(C)(C)NC(=O)N1CCn2nc(-c3cncc(Cl)c3)c(C(N)=O)c2C1
8.00 to 11.00

====

target.desc: CK1δ (Homo sapiens (Human))
experimental.details: CK1δ kinase assay (Caliper LABCHIP electrophoretic separation of fluoresceinated peptide substrate and product)
Assay type: biochemical
condition.parameters: CK1δ (IC50, nM)
value.kind: IC50

Request - read-out IC50 | tested on CK1δ (Homo sapiens (Human)) | compound N#Cc1ccc(NC(=O)N2Cc3c(C(N)=O)c(-c4ccc(F)c(Cl)c4)nn3CC23CC3)cc1C(F)(F)F
10 to 100 nM

====

target.desc: CK1δ (Homo sapiens (Human))
experimental.details: CK1δ kinase assay (Caliper LABCHIP electrophoretic separation of fluoresceinated peptide substrate and product)
Type: biochemical
condition.parameters: 200 pM CK1δ, 50 μM ATP, 1.5 μM peptide substrate, 22 hours at room temperature; read-out: CK1δ (IC50)
Reported IC50 is given for each of the following molecules.

These solved cases illustrate the format of a correct answer.
>  <molecule>
N#Cc1ccc(NC(=O)N2CCn3nc(-c4cc(Cl)ccc4Cl)c(C(N)=O)c3C2)cc1

>  <target.desc>
CK1δ (Homo sapiens (Human))

>  <IC50>
0.01 to 10 nM

$$$$
>  <molecule>
Cc1cc(-c2nn3c(c2C(N)=O)CN(C(=O)Nc2ccc4c(c2)CS(=O)(=O)C4)CC3)ccc1F

>  <target.desc>
CK1δ (Homo sapiens (Human))

>  <IC50>
0.01 to 10 nM

$$$$
>  <molecule>
N#Cc1ccc(NC(=O)N2CCn3nc(-c4ccc5c(c4)OCO5)c(C(N)=O)c3C2)cc1

>  <target.desc>
CK1δ (Homo sapiens (Human))

>  <IC50>
10 to 100 nM

$$$$

Attention now turns to another entry.
I am curious: what IC50 value has been reported for CC(C)(O)[C@@H]1CN(C(=O)Nc2ccc(C#N)cc2)Cc2c(C(N)=O)c(-c3ccc(Cl)c(Cl)c3)nn21 (single isomer, unassigned) ?
0.01 to 10 nM

Origin of measurements: patent US9598423B2
